Ref: the supplement of paper PMC5662764

Kindly supply the reported normalised growth rate inhibition values for the records listed here.
# System: MCF10A
# protocol details: normalised growth rate inhibition (GR value) relative to DMSO control (GR (1 = untreated growth, 0 = cytostasis, <0 = cytotoxic)); higher = less growth inhibition
# conditions used: 3.33 µM; 72 h
Answers are plain numbers.

{"molecule": "COc1cc2ncn(-c3cc(OCc4ccccc4C(F)(F)F)c(C(N)=O)s3)c2cc1OC", "tested target": "MCF10A", "normalised growth rate inhibition": -0.0733}

Hey, can you go through the list below and give me normalised growth rate inhibition for every item?
1. Cc1cc(Nc2cc(N3CCN(C)CC3)nc(Sc3ccc(NC(=O)C4CC4)cc3)n2)n[nH]1 [tozasertib]
2. O=C(Nc1cccc(Nc2ncc(Br)c(NCCc3cnc[nH]3)n2)c1)N1CCCC1 [BX-912]
3. CCN(CC)CCCCNc1ncc2cc(-c3cc(OC)cc(OC)c3)c(NC(=O)NC(C)(C)C)nc2n1

**A:**
1: 0.0967; 2: 0.172; 3: 0.984

Lab note: each molecule below needs its normalised growth rate inhibition filled in.
1. CC(=O)c1c(C)c2cnc(Nc3ccc(N4CCNCC4)cn3)nc2n(C2CCCC2)c1=O [palbociclib]
2. CCn1c(-c2nonc2N)nc2c(C#CC(C)(C)O)ncc(OC[C@H]3CCCNC3)c21
3. O=C1NC(=O)/C(=C/c2ccc3nccc(-c4ccncc4)c3c2)S1
4. c1ccc2c(-c3cnn4cc(-c5ccc(N6CCNCC6)cc5)cnc34)ccnc2c1
5. CN(c1ccccc1CNc1nc(Nc2ccc3c(c2)CC(=O)N3)ncc1C(F)(F)F)S(C)(=O)=O
6. CCC(=O)N1CCN(c2ccc(-n3c(=O)ccc4cnc5ccc(-c6cnc7ccccc7c6)cc5c43)cc2C(F)(F)F)CC1 [torin-1]
7. CN1CCN(CCOc2cc(OC3CCOCC3)c3c(Nc4c(Cl)ccc5c4OCO5)ncnc3c2)CC1 [saracatinib]

**A:**
1. 0.534
2. 0.872
3. -0.0425
4. 0.661
5. 0.0578
6. 0.156
7. 0.534

# per-item lookup of normalised growth rate inhibition; items listed below
1. Cc1cc(C(C)Nc2ccccc2)c2nc(N3CCOCC3)cc(=O)n2c1 (stereo not drawn) [TGX-221]
2. CNC(=O)c1ccc(Nc2cc(Nc3ccccc3S(=O)(=O)C(C)C)c3cc[nH]c3n2)nc1 [HG-5-113-01]
3. COc1cc(C(=O)NC2CCN(C)CC2)ccc1Nc1ncc2c(n1)N(C1CCCC1)CCC(=O)N2C(C)C
4. FC(F)c1nc2ccccc2n1-c1nc(N2CCOCC2)nc(N2CCOCC2)n1 [ZSTK-474]
5. Cc1ccc(F)c(NC(=O)Nc2ccc(-c3cccc4[nH]nc(N)c34)cc2)c1 [linifanib]
6. CC[C@H](CO)Nc1nc(NCc2ccccc2)c2ncn(C(C)C)c2n1 [roscovitine]
7. Nc1ccc(C(=O)Nc2cccc(-c3nc(N4CCOCC4)c4oc5ncccc5c4n3)c2)cn1

**A:**
0.591
0.312
0.948
0.296
0.994
0.926
0.734

---

Task for the reader: assign each of the following compounds its reported normalised growth rate inhibition.
# Test system: SKBR3
# protocol details: normalised growth rate inhibition (GR value) relative to DMSO control (GR (1 = untreated growth, 0 = cytostasis, <0 = cytotoxic)); higher = less growth inhibition
# conditions used: 0.37 µM; 72 h
One number for each entry.

Here is how some compounds turned out for normalised growth rate inhibition.
{"chemical smiles": "COCC(=O)NC/C=C/c1ccc2ncnc(Nc3ccc(Oc4ccc(C)nc4)c(C)c3)c2c1", "normalised growth rate inhibition": 0.188}
{"chemical smiles": "COc1cc(C(=O)NC2CCN(C)CC2)ccc1Nc1ncc2c(n1)N(C1CCCC1)CCC(=O)N2C(C)C", "normalised growth rate inhibition": 0.775}
{"chemical smiles": "Cc1ncc(-c2ccnc(Nc3ccc(S(C)(=O)=O)cc3)n2)n1C(C)C", "normalised growth rate inhibition": 0.292}
{"chemical smiles": "CN1CCN(c2ccc3nc(-c4c(N)c5c(F)cccc5[nH]c4=O)[nH]c3c2)CC1", "normalised growth rate inhibition": 0.497}
{"chemical smiles": "NC(=O)Nc1cc(-c2cccc(F)c2)sc1C(=O)N[C@H]1CCCNC1", "normalised growth rate inhibition": -0.168}

Give me normalised growth rate inhibition for each of these compounds, listed below.
1. Nc1cccc(-c2cc3c(Oc4cccc(O)c4)ncnc3[nH]2)c1
2. O=C1NC(=O)/C(=C/c2ccc3nccc(-c4ccncc4)c3c2)S1
3. CN1CC[C@H](c2c(O)cc(O)c3c(=O)cc(-c4ccccc4Cl)oc23)[C@H](O)C1
4. C=CC(=O)N1CCc2ccc(-n3c(=O)ccc4cnc5ccc(-c6cnn(C)c6)cc5c43)cc21
5. Cc1ccc(NC(=O)c2ccc(CN3CCN(C)CC3)cc2)cc1Nc1nccc(-c2cccnc2)n1

**A:**
[1.06, 0.541, -0.32, 0.0964, 1.04]

The following compounds each have a reported value; give each one's normalised growth rate inhibition.
1. C[C@]1(O)C[C@@H](c2nc(-c3ccc4ccc(-c5ccccc5)nc4c3)c3c(N)nccn32)C1
2. N#CCNC(=O)c1ccc(-c2ccnc(Nc3ccc(N4CCOCC4)cc3)n2)cc1
3. CNC(=O)c1cc(Oc2ccc(NC(=O)Nc3ccc(Cl)c(C(F)(F)F)c3)cc2)ccn1
4. Cn1c(=O)n(-c2ccc(C(C)(C)C#N)cc2)c2c3cc(-c4cnc5ccccc5c4)ccc3ncc21
5. Nc1ccc(C(=O)Nc2cccc(-c3nc(N4CCOCC4)c4oc5ncccc5c4n3)c2)cn1

**A:**
1. 0.806
2. 0.789
3. 0.993
4. -0.0406
5. 1.03

Provide normalised growth rate inhibition values for the following items, in order.
1. COc1cc(N2CCC(C(N)=O)CC2)ccc1Nc1nc(N)c(Cl)c(Nc2ccccc2S(=O)(=O)C(C)C)n1
2. N#CC[C@H](C1CCCC1)n1cc(-c2ncnc3[nH]ccc23)cn1

**A:**
1: 0.678; 2: 0.922

---

# System: SKBR3
# protocol details: normalised growth rate inhibition (GR value) relative to DMSO control (GR (1 = untreated growth, 0 = cytostasis, <0 = cytotoxic)); higher = less growth inhibition
# conditions used: 0.37 µM; 72 h
attribute measured: normalised growth rate inhibition

Solved cases (4 shown):
{"chemical smiles": "Cc1cnc(-c2cnc(NCCNc3ccc(C#N)cn3)nc2-c2ccc(Cl)cc2Cl)[nH]1", "normalised growth rate inhibition": 0.786}
{"chemical smiles": "CCOc1cc2ncc(C#N)c(Nc3ccc(OCc4ccccn4)c(Cl)c3)c2cc1NC(=O)/C=C/CN(C)C", "normalised growth rate inhibition": -0.14}
{"chemical smiles": "NC1(c2ccc(-c3nc4ccn5c(=O)[nH]nc5c4cc3-c3ccccc3)cc2)CCC1", "normalised growth rate inhibition": 0.484}
{"chemical smiles": "CCOc1cc2ncc(C#N)c(Nc3ccc(F)c(Cl)c3)c2cc1NC(=O)/C=C/CN(C)C", "normalised growth rate inhibition": -0.0906}

normalised growth rate inhibition reading for `Cc1ccc2nc(NCCN)c3ncc(C)n3c2c1` : 0.929

---

# System: MCF7
# protocol details: normalised growth rate inhibition (GR value) relative to DMSO control (GR (1 = untreated growth, 0 = cytostasis, <0 = cytotoxic)); higher = less growth inhibition
# conditions used: 10 µM; 72 h
Kindly supply the reported normalised growth rate inhibition values for the records listed here.

// below: answered compounds
{"compound": "COC(=O)c1ccc2c(C(=Nc3ccc(N(C)C(=O)CN4CCN(C)CC4)cc3)c3ccccc3)c(O)[nH]c2c1 [nintedanib]", "normalised growth rate inhibition": 0.038}
{"compound": "Cc1cc(C(C)Nc2ccccc2)c2nc(N3CCOCC3)cc(=O)n2c1 (centres undefined) [TGX-221]", "normalised growth rate inhibition": 0.822}
{"compound": "COC1=C2C[C@@H](C)C[C@H](OC)[C@H](O)[C@@H](C)/C=C(\\C)[C@H](OC(N)=O)[C@@H](OC)/C=C\\C=C(/C)C(=O)NC(=CC1=O)C2=O [geldanamycin]", "normalised growth rate inhibition": -0.3}

// moving on: another record for normalised growth rate inhibition
Reported normalised growth rate inhibition of CCOc1cc2ncc(C#N)c(Nc3ccc(F)c(Cl)c3)c2cc1NC(=O)/C=C/CN(C)C [pelitinib] : -0.164

---

# Tested on: MCF7
# protocol details: normalised growth rate inhibition (GR value) relative to DMSO control (GR (1 = untreated growth, 0 = cytostasis, <0 = cytotoxic)); higher = less growth inhibition
# conditions used: 1.11 µM; 72 h
For each of the compounds below, state its normalised growth rate inhibition.
One number for each entry.

{"compound": "CC1=C(CO)C(=O)O[C@@H]([C@@H](C)[C@H]2CC[C@H]3[C@@H]4C[C@H]5O[C@]56[C@@H](O)C=CC(=O)[C@]6(C)[C@H]4CC[C@]23C)C1 [withaferin-a]", "value": 0.0882}

Give normalised growth rate inhibition for each of the items listed below.
1. COc1cc2ncnc(Nc3ccc(F)c(Cl)c3)c2cc1OCCCN1CCOCC1 [gefitinib]
2. Nc1cc(C(F)(F)F)c(-c2cc(N3CCOCC3)nc(N3CCOCC3)n2)cn1 [buparlisib]

**A:**
[1.04, -0.113]

For every listed record, write down its normalised growth rate inhibition.
1. C[C@@H]1C[C@H]2O[C@@H]2/C=C\C=C\C(=O)Cc2c(Cl)c(O)cc(O)c2C(=O)O1 [radicicol]
2. C=CC(=O)Nc1cc2c(Nc3ccc(F)c(Cl)c3)ncnc2cc1OCCCN1CCOCC1 [canertinib]

**A:**
1. 0.123
2. 0.67

I would be grateful if you could provide normalised growth rate inhibition for each of the following entries.
1. COCC(=O)NC/C=C/c1ccc2ncnc(Nc3ccc(Oc4ccc(C)nc4)c(C)c3)c2c1
2. CCOc1cc2ncc(C#N)c(Nc3ccc(F)c(Cl)c3)c2cc1NC(=O)/C=C/CN(C)C [pelitinib]
3. CN1CCN(c2ccc3nc(-c4c(N)c5c(F)cccc5[nH]c4=O)[nH]c3c2)CC1 [dovitinib]
4. COc1cc(N2CCC(N3CCN(C)CC3)CC2)ccc1Nc1ncc(Cl)c(Nc2ccccc2S(=O)(=O)C(C)C)n1 [NVP-TAE684]
5. CNC(=O)Nc1ccc(-c2nc(N3CC4CCC(C3)O4)c3cnn(C4CCC5(CC4)OCCO5)c3n2)cc1
6. Cn1c(=O)n(-c2ccc(C(C)(C)C#N)cc2)c2c3cc(-c4cnc5ccccc5c4)ccc3ncc21 [NVP-BEZ235]
7. FC(F)c1nc2ccccc2n1-c1nc(N2CCOCC2)nc(N2CCOCC2)n1 [ZSTK-474]
8. CC(=O)c1c(C)c2cnc(Nc3ccc(N4CCNCC4)cn3)nc2n(C2CCCC2)c1=O [palbociclib]

**A:**
0.796
0.763
0.554
-0.108
0.149
0.0257
0.0423
0.356
